testSystem: IKKε (Homo sapiens)
Sequence (Q14164 whole entry, species assumed): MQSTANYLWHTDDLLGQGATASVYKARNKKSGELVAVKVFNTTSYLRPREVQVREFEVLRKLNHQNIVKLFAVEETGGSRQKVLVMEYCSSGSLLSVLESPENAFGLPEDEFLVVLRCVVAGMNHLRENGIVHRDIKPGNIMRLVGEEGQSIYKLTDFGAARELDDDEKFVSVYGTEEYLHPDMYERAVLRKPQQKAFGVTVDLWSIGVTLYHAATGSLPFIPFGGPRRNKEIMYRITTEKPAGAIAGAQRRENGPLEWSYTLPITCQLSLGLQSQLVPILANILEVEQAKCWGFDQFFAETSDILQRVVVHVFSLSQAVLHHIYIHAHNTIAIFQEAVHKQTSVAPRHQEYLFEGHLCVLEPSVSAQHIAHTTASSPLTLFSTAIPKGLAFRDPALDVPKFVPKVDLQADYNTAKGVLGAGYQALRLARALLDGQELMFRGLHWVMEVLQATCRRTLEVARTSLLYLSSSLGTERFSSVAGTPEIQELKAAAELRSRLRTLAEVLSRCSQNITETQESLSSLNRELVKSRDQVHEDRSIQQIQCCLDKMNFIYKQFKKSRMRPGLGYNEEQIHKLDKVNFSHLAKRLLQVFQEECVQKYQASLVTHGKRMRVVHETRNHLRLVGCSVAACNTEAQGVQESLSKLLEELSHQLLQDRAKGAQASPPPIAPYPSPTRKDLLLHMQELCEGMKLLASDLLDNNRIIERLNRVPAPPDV
assayExplanation: IKKe Biochemical Assay
protocolConditions: read-out: IKKε IC50
propertyLabel: IC50

Below: 6 molecules and their reported IC50.
molecule | testSystem | propertyLabel | dataValue
N#Cc1cc(-c2ccnc3cc(-c4ccc(C(=O)N[C@@H]5CNCC[C@H]5F)cc4)oc23)ccc1OC1CCOCC1 | IKKε (Homo sapiens) | IC50 | < 100 nM
COc1cc(C(=O)NC(C)(C)CN(C)C)ccc1-c1cc2nccc(-c3ccc(NC4CCOCC4)c(C#N)c3)c2o1 | IKKε (Homo sapiens) | IC50 | < 100 nM
COc1cc(C(=O)N2CCCCC2)cnc1-c1cc2nccc(-c3ccc(N4CC[C@@H](F)C4)c(C#N)c3)c2o1 | IKKε (Homo sapiens) | IC50 | < 100 nM
CCOC(=O)c1ccc(-c2cc3nccc(-c4ccc(N5CC[C@@H](F)C5)c(C#N)c4)c3o2)cc1 | IKKε (Homo sapiens) | IC50 | 100 to 1000 nM
CN(C)C(=O)c1ccc(-c2cc3nccc(-c4ccc(OC5CCOCC5)c(C#N)c4)c3o2)c(Cl)c1 | IKKε (Homo sapiens) | IC50 | < 100 nM
CC1CC(Oc2ccc(-c3ccnc4cc(-c5ccc(C(=O)N(C)C)cc5)oc34)cc2C#N)CCO1 (stereo not shown) | IKKε (Homo sapiens) | IC50 | 100 to 1000 nM

Please look at the following molecule next.
In: Quick check: IC50 of COc1cc(C(=O)N(C)CCCO)ccc1-c1cc2nccc(-c3ccc(NC4CCOCC4)c(C#N)c3)c2o1 ?
Out: < 100 nM

====

testSystem: TBK1 (Homo sapiens, UniProt Q9UHD2)
Sequence (Q9UHD2 whole entry, species assumed): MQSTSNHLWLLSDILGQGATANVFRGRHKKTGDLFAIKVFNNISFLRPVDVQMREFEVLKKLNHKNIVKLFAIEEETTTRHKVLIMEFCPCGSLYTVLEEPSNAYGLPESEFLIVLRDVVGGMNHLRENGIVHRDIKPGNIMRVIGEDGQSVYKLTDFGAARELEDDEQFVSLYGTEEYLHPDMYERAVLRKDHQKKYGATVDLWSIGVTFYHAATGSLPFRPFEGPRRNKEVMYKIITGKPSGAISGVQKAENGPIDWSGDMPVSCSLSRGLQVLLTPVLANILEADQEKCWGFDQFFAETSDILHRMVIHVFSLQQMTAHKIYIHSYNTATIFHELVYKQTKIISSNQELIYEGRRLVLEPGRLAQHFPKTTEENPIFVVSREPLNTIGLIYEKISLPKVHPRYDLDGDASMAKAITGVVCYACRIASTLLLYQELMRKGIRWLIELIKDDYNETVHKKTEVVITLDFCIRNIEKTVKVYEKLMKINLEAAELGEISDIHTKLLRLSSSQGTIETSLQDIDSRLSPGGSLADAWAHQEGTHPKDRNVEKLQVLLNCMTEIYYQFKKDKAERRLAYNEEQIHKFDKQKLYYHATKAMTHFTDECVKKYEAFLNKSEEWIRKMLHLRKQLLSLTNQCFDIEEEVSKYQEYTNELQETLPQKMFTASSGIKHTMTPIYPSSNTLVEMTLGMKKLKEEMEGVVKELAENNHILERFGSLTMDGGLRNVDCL
assayExplanation: TBK Biochemical Assay
protocolConditions: read-out: TBK1 IC50
Structures can show the parent of a compound that is named as a salt.
propertyLabel: IC50

The examples below pair each entry with its known result.
compound | propertyLabel | dataValue
COc1cc(C(=O)N2CC3CC(C2)O3)ccc1-c1cc2nccc(-c3ccc(OC4CCOCC4)c(C#N)c3)c2o1 | IC50 | < 0.1 µM
CN(C)C(=O)c1ccc(-c2cc3nccc(-c4cc(F)c(OC5CCOCC5)c(C#N)c4)c3o2)nc1 [Compound 245, hydrochloride] | IC50 | 0.1 to 1 µM

In: Could you tell me which IC50 is on file for COc1cc(C(=O)N2CCCC2)ccc1-c1cc2nccc(-c3ccc(OC4CCOCC4)c(C#N)c3)c2o1 ?
Out: < 0.1 µM

In: Look at this compound and give its reported IC50. COc1cc(C(=O)N2C3CCCC2CC3)ccc1-c1cc2nccc(-c3ccc(OC4CCOCC4)c(C#N)c3)c2o1
Out: < 0.1 µM

In: Fill in the blank: the reported IC50 of COc1cc(C(=O)N2CC[C@@H](N(C)C)C2)cnc1-c1cc2nccc(-c3ccc(N4CC[C@H](F)C4)c(C#N)c3)c2o1 is ____.
Out: < 0.1 µM

In: IC50 for COc1cc(C(=O)N(C)C)cnc1-c1cc2ncc(C)c(-c3ccc(OC4CCOCC4)c(C#N)c3)c2o1 ?
Out: 1 to 5 µM

In: So what does the record say about IC50 for COc1cc(C(=O)N2CCCCN2)ccc1-c1cc2nccc(-c3ccc(OC4CCOCC4)c(C#N)c3)c2o1 ?
Out: < 0.1 µM
